The reported measurements were obtained from patent US20100273722A1.

# TARGET_ENTITY: human Lyn (residues 62-122) SH3 domain-GST fusion protein (human), P07948
# Sequence (P07948 62-122): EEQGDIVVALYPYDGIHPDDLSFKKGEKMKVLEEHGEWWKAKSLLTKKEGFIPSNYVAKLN
# EXPERIMENT: fluorescence polarization, 50 nM labeled peptide, SH3-GST titrated
OBSERVATION_TYPE: pKd
The meaning of pKd here: minus log10 of the concentration in molar units.

Looking up CGGAPPLPPRNRPR (modifications not checked) [^Flu1, fluorescently labeled analog of Peptide 1] , I found its pKd recorded as 5.70
